// T/C lookup, one value per entry
System: L1210 leukemia ip in BDF1 mice, survival T/C
assay notes: NCI In Vivo Anticancer Drug Screen. Data for tumor model L1210 Leukemia (intraperitoneal) in B6D2F1 (BDF1) mice
condition context: endpoint: mean survival time; dose: 200.0 mg/kg/injection; schedule: Q04DX002 (ip); vehicle: Klucel (hydroxypropylcellulose) (HPC); higher = longer survival
Inconclusive results and toxic doses are left out.
property label: T/C

>>> recorded_measurement("S=C(Nc1ccccc1)Nc1ccc(Br)cc1")
"105 % of control"
>>> recorded_measurement("COc1cc(C[C@H]2c3cc(OC)c(OC)cc3CCN2C)c(Oc2cc3c(cc2OC)-c2c(OC)c(OC)cc4c2[C@H](C3)N(C)CC4)cc1OC")
"86 % of control"
>>> recorded_measurement("CCCCCCCCCCCCCCCCCCNC(=O)N(C)Cc1ccccc1")
"96 % of control"
>>> recorded_measurement("CCCCCCCCCCCC(=O)NC(=S)Nc1cc(OC)ccc1OC")
"111 % of control"
>>> recorded_measurement("CCN(CC)Cc1ccccc1COC(=O)c1ccc([N+](=O)[O-])cc1")
"94 % of control"
>>> recorded_measurement("Cc1cccc(C)c1OC(=O)Nc1ccc(Cl)cc1")
"110 % of control"

---

Listed here: items and their measured T/C.
Tested on: L1210 leukemia ip in BDF1 mice, survival T/C
assay notes: NCI In Vivo Anticancer Drug Screen. Data for tumor model L1210 Leukemia (intraperitoneal) in B6D2F1 (BDF1) mice
condition context: endpoint: mean survival time; dose: 100.0 mg/kg/injection; schedule: Q01DX001 (ip); vehicle: Klucel (hydroxypropylcellulose) (HPC); higher = longer survival
Toxic doses and inconclusive results are not listed.
property label: T/C

>>> recorded_measurement("c1ccc2c(c1)[nH]c1cc3ccncc3cc12")
"94 % of control"
>>> recorded_measurement("Cc1cc(=O)[nH]c2c1CCCCC2")
"98 % of control"
>>> recorded_measurement("COC1CCC(NC(=O)NCCCl)CC1 (stereo unspecified)")
"95 % of control"
>>> recorded_measurement("C=C(C)CNC(N)=S")
"105 % of control"
>>> recorded_measurement("COc1ccc(C[n+]2cc([O-])on2)cc1")
"102 % of control"
>>> recorded_measurement("C/C(=N/NC(=O)c1ccccc1)C(=O)c1ccccc1")
"101 % of control"
>>> recorded_measurement("c1ccc(N2CC2)cc1")
"105 % of control"
>>> recorded_measurement("C=C(Cl)COC(=O)C(C)O (stereo unspecified)")
"100 % of control"
>>> recorded_measurement("COc1ccc(NNP(=O)(CCl)N(CCCl)CCCl)cc1 (stereo unspecified)")
"104 % of control"
>>> recorded_measurement("O=C(Nc1cccc(O)c1)Nc1cc([N+](=O)[O-])ccc1F")
"91 % of control"
>>> recorded_measurement("O=[N+]([O-])c1cccc(C=Nc2ccc(Cl)cc2Cl)c1")
"92 % of control"
>>> recorded_measurement("CCCCCCCCCCC(=O)O")
"105 % of control"
>>> recorded_measurement("Nc1nc2c(ncn2-c2cccc(NS(=O)(=O)c3cccc(S(=O)(=O)F)c3)c2)c(=O)[nH]1")
"94 % of control"
>>> recorded_measurement("CSc1nncc(-c2ccccc2)n1")
"100 % of control"
>>> recorded_measurement("O=C(OC1COC(OC(=O)c2ccccc2)C(OC(=O)c2ccccc2)C1OC(=O)c1ccccc1)c1ccccc1 (stereo unspecified)")
"102 % of control"
>>> recorded_measurement("N=C(N)c1cccc(OCc2ccccc2)c1")
"90 % of control"
>>> recorded_measurement("NC(=O)C(NC(=O)c1ccccc1)Sc1ccccc1 (stereo unspecified)")
"100 % of control"
>>> recorded_measurement("NC1=NCN(c2ccc(OCCOc3ccc([N+](=O)[O-])cc3)cc2)C(N)=N1")
"107 % of control"
>>> recorded_measurement("Cc1nc(N)nc(Cl)c1CCCc1ccccc1")
"97 % of control"
>>> recorded_measurement("Cc1nc(N)nc(N)c1CCCOc1ccc(N)cc1")
"103 % of control"
>>> recorded_measurement("c1ccc2ncc(-c3ccc4ccccc4n3)cc2c1")
"100 % of control"
>>> recorded_measurement("C=CCOc1ccn(CC=C)c(=O)n1")
"96 % of control"
>>> recorded_measurement("CC[CH2][Sn]([CH2]C)([c]1ccccc1)[c]1ccccc1")
"97 % of control"
>>> recorded_measurement("O=[N+]([O-])c1ccc(OCc2ccc(S(=O)(=O)Oc3cccnc3)cc2)c(Cl)c1")
"94 % of control"
>>> recorded_measurement("CC(=O)Nc1ncc(/C=C/c2ccc([N+](=O)[O-])cc2)c(NC(C)=O)n1")
"100 % of control"
>>> recorded_measurement("O=C(Nc1cc(F)ccc1F)Oc1cccnc1")
"96 % of control"
